Target: TLR8 (Homo sapiens, UniProt Q9NR97)
Sequence (Q9NR97 27-1041): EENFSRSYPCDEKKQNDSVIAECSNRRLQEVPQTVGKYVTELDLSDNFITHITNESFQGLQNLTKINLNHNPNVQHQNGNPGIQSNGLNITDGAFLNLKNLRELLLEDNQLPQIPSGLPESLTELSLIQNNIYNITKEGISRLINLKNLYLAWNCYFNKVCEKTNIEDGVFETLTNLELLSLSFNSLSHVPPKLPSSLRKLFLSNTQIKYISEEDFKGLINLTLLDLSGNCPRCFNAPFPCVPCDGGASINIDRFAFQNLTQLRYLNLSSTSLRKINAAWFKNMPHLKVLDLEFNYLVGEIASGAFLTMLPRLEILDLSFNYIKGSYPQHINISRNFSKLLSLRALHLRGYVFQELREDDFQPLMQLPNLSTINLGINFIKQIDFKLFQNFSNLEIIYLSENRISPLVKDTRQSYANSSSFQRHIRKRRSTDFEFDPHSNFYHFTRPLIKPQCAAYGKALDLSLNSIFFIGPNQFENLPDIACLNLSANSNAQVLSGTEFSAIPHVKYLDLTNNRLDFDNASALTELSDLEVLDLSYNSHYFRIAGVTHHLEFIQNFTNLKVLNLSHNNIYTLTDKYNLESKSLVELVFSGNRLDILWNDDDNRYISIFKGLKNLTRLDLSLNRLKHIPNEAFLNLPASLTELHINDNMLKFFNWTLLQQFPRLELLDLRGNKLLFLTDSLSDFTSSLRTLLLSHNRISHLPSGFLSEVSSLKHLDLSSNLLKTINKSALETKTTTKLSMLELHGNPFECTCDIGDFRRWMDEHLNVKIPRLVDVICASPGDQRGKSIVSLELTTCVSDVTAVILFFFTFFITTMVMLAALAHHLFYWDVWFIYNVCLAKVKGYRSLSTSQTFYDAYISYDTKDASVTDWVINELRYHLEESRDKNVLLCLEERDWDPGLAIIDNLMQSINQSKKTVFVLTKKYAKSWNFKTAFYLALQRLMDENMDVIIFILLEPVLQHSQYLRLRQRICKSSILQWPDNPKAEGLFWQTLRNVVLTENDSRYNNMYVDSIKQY
Assay: HEK/293 TLR8 Cell Assay
Conditions: HEK cells, R848 agonist 30 uM final concentration, Steady-Glo readout; read-out: TLR8 potency
measuredProperty: IC50

Task item: For Cc1ccc(N2C[C@@H](C)C[C@@H](NC(=O)[C@@H](N)CC(N)=O)C2)c2cccnc12 , what is its reported IC50?
Reply: < 75 nM
